# TARGET_OR_SYSTEM: human M5 receptors (hM5) (Homo sapiens)
# Construct: expressed in transfected cells
# METHOD: Cell-based functional calcium mobilization assay of mAChR M5 activity (inhibition of EC80 acetylcholine response) in CHO cells
# CONDITION_CONTEXT: CHO cells stably expressing hM5; minimum of EC80 acetylcholine response, normalized to maximum acetylcholine response
Entries and their measured EC80 MIN follow.
The figure you give is taken to be in %; do not add the unit.

Reference set (3 entries):
In [3]: df
Out[3]:
                                   compound  unit_string  measurement
0  CC1(C(=O)Nc2ccc3scnc3c2)CN(S(=O)(=O)c2ccc3c(c2)CCO3)C1            %           43
1  Cn1ncc2cc(S(=O)(=O)N3CCC(C(=O)Nc4ccc5scnc5c4)CC3)cnc21            %           40
2  O=C(Nc1ccc2scnc2c1)[C@H]1CCN(S(=O)(=O)c2ccc3ncsc3c2)C[C@H]1F (racemic)            %           63

Would you kindly look at the next entry?
Kindly indicate its recorded EC80 MIN. Item: O=C(Nc1ccc2scnc2c1)C1CCN(S(=O)(=O)c2ccccc2F)CC1
6

* * *

Entries and their measured IC50 follow.
# TARGET_OR_SYSTEM: human M5 receptors (hM5) (Homo sapiens)
# Sequence (P08912 1-532): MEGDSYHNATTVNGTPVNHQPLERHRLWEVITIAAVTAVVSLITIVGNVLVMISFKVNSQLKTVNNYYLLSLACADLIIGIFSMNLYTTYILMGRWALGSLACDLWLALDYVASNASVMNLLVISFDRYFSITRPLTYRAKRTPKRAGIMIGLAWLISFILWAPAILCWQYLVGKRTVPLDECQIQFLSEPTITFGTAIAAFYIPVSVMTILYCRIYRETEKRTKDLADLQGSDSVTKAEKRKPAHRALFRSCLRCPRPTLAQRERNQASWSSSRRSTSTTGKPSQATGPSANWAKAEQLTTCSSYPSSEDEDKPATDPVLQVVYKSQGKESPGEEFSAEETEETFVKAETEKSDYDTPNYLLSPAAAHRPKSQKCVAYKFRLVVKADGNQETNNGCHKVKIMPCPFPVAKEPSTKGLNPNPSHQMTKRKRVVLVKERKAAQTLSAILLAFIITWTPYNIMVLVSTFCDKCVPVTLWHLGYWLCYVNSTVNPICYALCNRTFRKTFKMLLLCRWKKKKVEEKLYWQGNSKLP
# METHOD: Cell-based functional calcium mobilization assay of mAChR M5 activity (inhibition of EC80 acetylcholine response) in CHO cells
# CONDITION_CONTEXT: CHO cells stably expressing hM5; calcium flux (Fluo-4), EC80 acetylcholine addition

Reference set (3 entries):
>>> df
                                   molecule  measurement
0  Cc1nc(C(F)(F)F)c(S(=O)(=O)N2CCC(C(=O)Nc3ccc4scnc4c3)CC2)s1 [Compound 19]      3.13 µM
1  Cc1nn(C)cc1S(=O)(=O)N1CC[C@@H](C(=O)Nc2ccc3scnc3c2)C1 [Compound 137]      > 10 µM
2  Cn1nnc2cc(S(=O)(=O)N3CCC(C(=O)Nc4ccc5scnc5c4)CC3)ccc21 [Compound 28]      > 10 µM

Kindly indicate its recorded IC50. Item: O=C(Nc1ccc2[nH]cnc2c1)C1CCN(S(=O)(=O)c2ccc3c(c2)CCO3)CC1 [Compound 13]
> 10 µM

Kindly indicate its recorded IC50. Item: CC1(C(=O)Nc2ccc3scnc3c2)CCN(S(=O)(=O)c2ccc3ncsc3c2)CC1 [Compound 105]
> 10 µM

Kindly indicate its recorded IC50. Item: Cc1ncc(S(=O)(=O)N2CC[C@H](C(=O)Nc3ccc4scnc4c3)[C@@H](F)C2)s1 (racemic) [Compound 160]
0.013 µM

Kindly indicate its recorded IC50. Item: CC1COc2ccc(S(=O)(=O)N3CCC(C(=O)Nc4ccc5scnc5c4)CC3)cc21 (racemic) [Compound 131]
0.109 µM

Kindly indicate its recorded IC50. Item: O=C(Nc1ccc2scnc2c1)C1CCN(S(=O)(=O)c2ccccc2C(F)(F)F)CC1 [Compound 64]
> 10 µM

Kindly indicate its recorded IC50. Item: O=C(Nc1ccc2scnc2c1)C1CCN(S(=O)(=O)c2cccc3nsnc23)CC1 [Compound 21]
0.434 µM

Kindly indicate its recorded IC50. Item: O=C(Nc1ccc2scnc2c1)C1CCN(S(=O)(=O)c2ccc(Br)c3c2OCC3)CC1 [Compound 58]
> 10 µM

Kindly indicate its recorded IC50. Item: O=C(Nc1ccc2scnc2c1)C1CCN(S(=O)(=O)c2ccc3c(c2)OC(F)(F)O3)CC1 [Compound 29]
> 10 µM

* * *

# TARGET_OR_SYSTEM: human M5 receptors (hM5) (Homo sapiens, UniProt P08912)
# Construct: expressed in transfected cells
# METHOD: Cell-based functional calcium mobilization assay of mAChR M5 activity (inhibition of EC80 acetylcholine response) in CHO cells
# CONDITION_CONTEXT: CHO cells stably expressing hM5; minimum of EC80 acetylcholine response, normalized to maximum acetylcholine response
Entries and their measured EC80 MIN follow.
The figure you give is taken to be in %; do not add the unit.

                                     smiles                          target_or_system  endpoint_label  measurement
0  O=C(Nc1ccc2scnc2c1)C1(F)CCN(S(=O)(=O)c2ccc3ncsc3c2)CC1  human M5 receptors (hM5) (Homo sapiens, UniProt P08912)        EC80 MIN           22

# assay system human M5 receptors (hM5) (Homo sapiens, UniProt P08912): give EC80 MIN of O=C(Nc1ccc2scnc2c1)C1CCN(S(=O)(=O)c2cccc(OC(F)(F)F)c2)CC1
57

# assay system human M5 receptors (hM5) (Homo sapiens, UniProt P08912): give EC80 MIN of COc1ccc(S(=O)(=O)N2CC[C@@H](C(=O)Nc3ccc4scnc4c3)C2)c(C)c1
3

* * *

# TARGET_OR_SYSTEM: human M5 receptors (hM5) (Homo sapiens)
# Construct: expressed in transfected cells
# METHOD: Cell-based functional calcium mobilization assay of mAChR M5 activity (inhibition of EC80 acetylcholine response) in CHO cells
# CONDITION_CONTEXT: CHO cells stably expressing hM5; minimum of EC80 acetylcholine response, normalized to maximum acetylcholine response
ENDPOINT_LABEL: EC80 MIN (%)
The figure you give is taken to be in %; do not add the unit.

Reference set (4 entries):
>>> df
                                   molecule  endpoint_label  measurement
0  O=C(Nc1ccc2scnc2c1)[C@H]1CCN(S(=O)(=O)c2ccc3c(c2)CCO3)C[C@H]1F (racemic)        EC80 MIN            2
1  Cc1ccc(S(=O)(=O)N2CCC(C(=O)Nc3ccc4scnc4c3)CC2)cn1        EC80 MIN            3
2  CC1(C(=O)Nc2ccc3scnc3c2)CCN(S(=O)(=O)c2cccc3nsnc23)CC1        EC80 MIN           24
3  [2H]C1([2H])Oc2ccc(S(=O)(=O)N3C[C@@H](C)[C@@H](C(=O)Nc4ccc5scnc5c4)C3)cc2C1([2H])[2H]        EC80 MIN            3

Kindly indicate its recorded EC80 MIN. Item: Cc1cc(S(=O)(=O)N2CCC(C(=O)Nc3ccc4scnc4c3)CC2)cnc1Cl
3

Kindly indicate its recorded EC80 MIN. Item: C[C@H]1CN(S(=O)(=O)c2cccnc2)CC[C@@H]1C(=O)Nc1ccc2scnc2c1 (racemic)
4

Kindly indicate its recorded EC80 MIN. Item: O=C(Nc1ccc2scnc2c1)C1CCN(S(=O)(=O)c2ccc3ncccc3c2)CC1
2

Kindly indicate its recorded EC80 MIN. Item: C[C@@H]1C[C@@H](C(=O)Nc2ccc3scnc3c2)CCN1S(=O)(=O)c1cccc2nsnc12 (racemic)
3

Kindly indicate its recorded EC80 MIN. Item: C[C@H]1CN(S(=O)(=O)c2ccc3ncsc3c2)CC[C@@H]1C(=O)Nc1ccc2scnc2c1 (racemic)
5

Kindly indicate its recorded EC80 MIN. Item: C[C@@H]1CN(S(=O)(=O)c2ccc3c(c2)C(C)(C)CO3)C[C@@H]1C(=O)Nc1ccc2scnc2c1
4

Kindly indicate its recorded EC80 MIN. Item: O=C(Nc1ccc2scnc2c1)C12CC1CN(S(=O)(=O)c1cc3c(cc1F)OCC3)C2 (racemic)
3

* * *

# TARGET_OR_SYSTEM: human M5 receptors (hM5) (Homo sapiens)
# Construct: expressed in transfected cells
# Sequence (P08912 1-532): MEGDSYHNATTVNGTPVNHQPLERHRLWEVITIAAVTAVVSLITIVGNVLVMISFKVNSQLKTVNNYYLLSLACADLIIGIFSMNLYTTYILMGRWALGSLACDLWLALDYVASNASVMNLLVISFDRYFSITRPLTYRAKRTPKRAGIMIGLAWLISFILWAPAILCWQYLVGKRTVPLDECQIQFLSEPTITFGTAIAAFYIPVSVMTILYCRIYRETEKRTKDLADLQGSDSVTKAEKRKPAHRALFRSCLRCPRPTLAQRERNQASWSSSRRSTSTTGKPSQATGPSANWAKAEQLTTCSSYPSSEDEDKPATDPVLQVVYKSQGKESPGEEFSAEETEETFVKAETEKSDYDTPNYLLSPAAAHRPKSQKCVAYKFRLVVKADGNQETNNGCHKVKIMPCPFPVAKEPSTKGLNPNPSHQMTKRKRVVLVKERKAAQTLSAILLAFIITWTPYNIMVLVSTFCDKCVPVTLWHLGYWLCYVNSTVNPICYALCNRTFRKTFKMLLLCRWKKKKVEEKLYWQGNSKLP
# METHOD: Cell-based functional calcium mobilization assay of mAChR M5 activity (inhibition of EC80 acetylcholine response) in CHO cells
# CONDITION_CONTEXT: CHO cells stably expressing hM5; minimum of EC80 acetylcholine response, normalized to maximum acetylcholine response
Hi all, reminder that labels come from EC80 MIN, split as lo: < 3%; mid: ≥ 3% and < 30%; hi: ≥ 30%

Some entries whose results are on file:
>>> print(df.to_string())
                                   compound  assigned_class
0  Cc1noc(C)c1S(=O)(=O)N1CC[C@@H](C(=O)Nc2ccc3scnc3c2)C1             mid
1  O=C(Nc1ccc2scnc2c1)[C@@H]1CCN(S(=O)(=O)c2ccc3ncsc3c2)C1              lo

Hello team, could you let me know which band the following compound falls into: Cc1nn(C)cc1S(=O)(=O)N1CC[C@H](C(=O)Nc2ccc3scnc3c2)[C@H](C)C1 (racemic)
mid

Hello team, could you let me know which band the following compound falls into: O=C(Nc1ccc2scnc2c1)C1CCN(S(=O)(=O)c2ccccc2-c2ccno2)CC1
hi

Hello team, could you let me know which band the following compound falls into: O=C(Nc1ccc2scnc2c1)[C@H]1CCN(S(=O)(=O)c2cccnc2)C[C@H]1F (racemic)
mid

Hello team, could you let me know which band the following compound falls into: CC1(C(=O)Nc2ccc3scnc3c2)CCN(S(=O)(=O)c2ccc(Cl)nc2)CC1
hi

Hello team, could you let me know which band the following compound falls into: O=C(Nc1ccc2scnc2c1)[C@@H]1CCN(S(=O)(=O)c2cc(I)c3c(c2)CCO3)C1
lo

Hello team, could you let me know which band the following compound falls into: O=C(Nc1ccc2scnc2c1)C1CCN(S(=O)(=O)c2cccc3ncccc23)CC1
hi

Hello team, could you let me know which band the following compound falls into: O=C(Nc1ccc2scnc2c1)[C@H]1CCN(S(=O)(=O)c2cccc3nsnc23)C[C@H]1F (racemic)
mid

Hello team, could you let me know which band the following compound falls into: C[C@H]1CN(S(=O)(=O)c2ccc3c(c2)C(C)(C)CO3)C[C@@H]1C(=O)Nc1ccc2scnc2c1
mid

Hello team, could you let me know which band the following compound falls into: O=C(Nc1cnc2[nH]ccc2c1)C1CCN(S(=O)(=O)c2ccc3c(c2)CCO3)CC1
hi

Data origin: patent US20230303552A1
